Tested on: B. fragilis NCTC 9344
Experiment: anti-anaerobic activity, MIC/MBC in 96 well microtitre plates, strain C
Assay type: cell-based, Bacteroides fragilis
Settings: Bacteroides fragilis, NCTC9344, 48 h, strain C; 48 hours at 37° C., anaerobic chamber; 10^5 cells/ml; read-out: MIC (Minimum Inhibitory Concentration)
Counter-ions that a name gives are not always drawn.
Hi there, I'd appreciate the recorded MIC for every entry that follows.
Entry rule: numbers only, all in µg/mL.

Given the compound O=C(O)/C=C/c1cn(CC(Cl)(C(=O)c2ccc(Cl)cc2Cl)c2ccccc2)cn1 (stereo not drawn) [Example 6, hydrochloride] , what is its reported MIC? 0.8

Item under review: C[C@H](NC(=O)[C@@H](N)CCCCNC(=O)/C=C/c1cn(CC(Cl)(C(=O)c2ccc(Cl)cc2Cl)c2ccccc2)cn1)C(=O)O (stereo partly drawn) . Reported MIC? 3.1

# query: MIC of entry N[C@@H](Cc1cn(CC(Cl)(C(=O)c2ccc(Cl)cc2Cl)c2ccccc2)cn1)C(=O)O (stereo partly drawn) 0.8

Fill in: MIC of Cc1ncc([N+](=O)[O-])n1CCO [Metronidazole, reference compound] is ___ 0.8

Fill blank: measured MIC of the compound O=C(c1ccc(Cl)cc1Cl)C(Cl)(Cn1ccnc1)c1ccccc1 (stereo not drawn) is ____. 0.8

Look up MIC for this compound: COC(=O)CCc1cn(CC(Cl)(C(=O)c2ccc(Cl)cc2Cl)c2ccccc2)cn1 (stereo not drawn) 1.5
